Data provenance is patent US20250154141A1.

Reported pIC50 values for a set of molecules
Tested on: RS4; 11
Experiment: Cell viability assay (MTS) in RS4; 11 cells
Format: cell-based
Conditions: Homo sapiens, RS4-11; Table 2; 48 hr; MTS; read-out: Anti-Cancer Activity IC50 (48 hr) RS4; 11
pIC50: −log10 of the molar value.

INSERT INTO results (molecule, assayed_target, result) VALUES
  ('Cc1ncsc1-c1ccc([C@H](C)NC(=O)[C@@H]2C[C@@H](O)CN2C(=O)[C@@H](NC(=O)CCCCCNC(=O)c2ccc(N3CCN(CC4(C)CCC(c5ccc(Cl)cc5)=C(CN5CCN(c6ccc(C(=O)NS(=O)(=O)c7ccc(N[C@H](CCN8CCOCC8)CSc8ccccc8)c(S(=O)(=O)C(F)(F)F)c7)cc6)CC5)C4)CC3)nc2)C(C)(C)C)cc1 (some centres unmarked)', 'RS4; 11', '7.00 to 7.70');

Pending molecule:
Ask | What measured pIC50 goes with Cc1ncsc1-c1ccc([C@H](C)NC(=O)[C@@H]2C[C@@H](O)CN2C(=O)[C@@H](NC(=O)CCCCCOCc2cn(CC3(C)CCC(c4ccc(Cl)cc4)=C(CN4CCN(c5ccc(C(=O)NS(=O)(=O)c6ccc(N[C@H](CCN7CCOCC7)CSc7ccccc7)c(S(=O)(=O)C(F)(F)F)c6)cc5)CC4)C3)nn2)C(C)(C)C)cc1 (some centres unmarked) ?
Reply | > 7.70
